B1: Tesmin, residues 368 to 403; numbered along this chain, Q9Y4I5 (parent)
chain: KGCNCRRSGCLKNYCECYEAQIMCSSICKCIGCKNY

Variants of: B1
Test: abundance fitness (aPCA) (normalised: wild type 0, dead -1); higher = more abundant; growth selection in yeast, the domain comes from the species named
Conditions: Homo sapiens
Outcome: yes for abundance fitness of at least -0.07; no for anything lower.

A selection of reference data follows.
I31M
yes
N35E
yes
C30Q
no
G2E
yes
Q21W
no

Could you please find out whether "S26T" has abundance fitness that meets -0.07 or exceeds it?
no

Could you please find out whether "S26P" has abundance fitness that meets -0.07 or exceeds it?
no

Could you please find out whether "N4G" has abundance fitness that meets -0.07 or exceeds it?
no

Could you please find out whether "L11P" has abundance fitness that meets -0.07 or exceeds it?
no

Could you please find out whether "Y36R" has abundance fitness that meets -0.07 or exceeds it?
yes

Could you please find out whether "Y36K" has abundance fitness that meets -0.07 or exceeds it?
no

Could you please find out whether "L11Q" has abundance fitness that meets -0.07 or exceeds it?
yes

Could you please find out whether "R7W" has abundance fitness that meets -0.07 or exceeds it?
no

Could you please find out whether "R7G" has abundance fitness that meets -0.07 or exceeds it?
yes

Could you please find out whether "C5L" has abundance fitness that meets -0.07 or exceeds it?
no

Could you please find out whether "A20I" has abundance fitness that meets -0.07 or exceeds it?
no

Could you please find out whether "R6A" has abundance fitness that meets -0.07 or exceeds it?
yes

Could you please find out whether "C15V" has abundance fitness that meets -0.07 or exceeds it?
no

Source listed as the Human Domainome abundance scans (Beltran et al. 2025).
